molecular target: KRAS G13D (Homo sapiens, UniProt P01116+P62937, G13D); assay: Disruption of BRAF RBD interaction with Ras (FRET / MOA assay, with Cyclophilin A); assay type: biochemical; conditions: KRAS G13D; read-out: KRAS G13D FRET data IC50
Sequence (P01116 1-169 isoform P01116-2 G13D limits assumed): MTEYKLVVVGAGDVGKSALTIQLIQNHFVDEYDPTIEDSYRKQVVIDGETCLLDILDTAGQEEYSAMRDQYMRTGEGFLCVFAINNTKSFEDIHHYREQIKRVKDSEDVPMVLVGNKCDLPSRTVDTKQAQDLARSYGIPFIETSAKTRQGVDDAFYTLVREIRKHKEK
Sequence (P62937 whole entry): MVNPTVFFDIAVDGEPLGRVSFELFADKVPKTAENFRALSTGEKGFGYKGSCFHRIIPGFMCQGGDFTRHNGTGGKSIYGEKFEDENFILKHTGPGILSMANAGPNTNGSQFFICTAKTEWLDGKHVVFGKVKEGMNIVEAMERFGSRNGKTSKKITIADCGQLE
pIC50: −log10 of the molar value.
Listed here are compounds together with their documented pIC50.

Worked examples, 3 compounds total:
- smilesData: "CCn1c(-c2cccnc2[C@H](C)OC)c2c3cc(ccc31)-c1cccc(c1)C[C@H](NC(=O)[C@H](C(C)C)N(C)C(=O)[C@H]1CCN(C(=O)C(C)(C)N(C)C)C1)C(=O)N1CCC[C@H](N1)C(=O)OCC(C)(C)C2"
  pIC50: "5.00 to 6.00"
- smilesData: "CCn1c(-c2cccnc2[C@H](C)OC)c2c3cc(ccc31)-c1cc(O)cc(c1)C[C@H](NC(=O)[C@H](C(C)C)N(C)C(=O)[C@@H]1CNC[C@@H]1C)C(=O)N1CCC[C@H](N1)C(=O)OCC(C)(C)C2"
  pIC50: "7.00 to 8.00"
- smilesData: "CCn1c(-c2cccnc2[C@H](C)OC)c2c3cc(ccc31)-c1csc(n1)C[C@H](NC(=O)[C@@H](OC(=O)N1CC(N(C)C)C1)C(C)C)C(=O)N1CCC[C@H](N1)C(=O)OCC(C)(C)C2"
  pIC50: "5.00 to 6.00"

Switching to the query record.
Indicate the recorded pIC50 value for this compound: CCn1c(-c2cccnc2[C@H](C)OC)c2c3cc(ccc31)-c1csc(n1)C[C@H](NC(=O)[C@H](C(C)C)N(C)C(=O)[C@@H]1C[C@@H]1C)C(=O)N1CCC[C@H](N1)C(=O)OCC(C)(C)C2
5.00 to 6.00
